- System: CYP3A
- EXPERIMENTAL_PROTOCOL: clinical
- PARTICULARS: human, plasma, intravenous, 0.2 mg, Elimination half-life, summary in discussion (Table 2)
PROPERTY: half-life

Qu. Find half-life for Cc1ncc2n1-c1ccc(Cl)cc1C(c1ccccc1F)=NC2 [Midazolam, midazolam] on CYP3A and write it down.
Ans. ~2 h

----------
- Test system: CYP3A
- EXPERIMENTAL_PROTOCOL: clinical
- PARTICULARS: human, plasma, intravenous, 0.2 mg, t1/2, MZ twins; terminal half-life; value (range)
- Procedure: Midazolam was administered as a 2 min intravenous infusion with a total dose of 0.2 mg. The phenotyping test with midazolam was performed on three different occasions with a time interval of at least 1 week and maximally 3 months. Pharmacokinetic parameters were estimated by non-compartmental analyses using the WinNonlin software (Pharsight Corporation, Mountain View, United States). […] Total plasma clearance (Cl) after administration of midazolam was calculated as the ratio dose over AUC. […]
PROPERTY: half-life (h)
Report the value in h with no unit label.

Qu. # return recorded half-life for input Cc1ncc2n1-c1ccc(Cl)cc1C(c1ccccc1F)=NC2
Ans. 2.72

----------
- Tested on: CYP3A
- EXPERIMENTAL_PROTOCOL: clinical
- PARTICULARS: human, plasma, intravenous, 0.2 mg
PROPERTY: tmax (min)
Give your result in min as a bare value.

Qu. Note down tmax recorded for Cc1ncc2n1-c1ccc(Cl)cc1C(c1ccccc1F)=NC2 [Midazolam, midazolam]
Ans. 10

----------
- Test system: CYP3A
- EXPERIMENTAL_PROTOCOL: clinical
- PARTICULARS: human, plasma, intravenous, 0.2 mg, Clearance, summary in discussion (Table 2)
PROPERTY: clearance

Qu. Query clearance for Cc1ncc2n1-c1ccc(Cl)cc1C(c1ccccc1F)=NC2
Ans. ~500 mL/min

----------
- Test system: CYP3A
- EXPERIMENTAL_PROTOCOL: clinical
- PARTICULARS: human, plasma, intravenous, 0.2 mg, Cmax, DZ twins; value (range)
PROPERTY: Cmax
Answer as a quantity: numeral, then unit.

Qu. Determine reported Cmax for Cc1ncc2n1-c1ccc(Cl)cc1C(c1ccccc1F)=NC2 ; test system: CYP3A.
Ans. 3.76 ng/mL

----------
- Tested on: CYP3A
- EXPERIMENTAL_PROTOCOL: clinical
- PARTICULARS: human, plasma, intravenous, 0.2 mg, Cl, MZ twins; value (range)
PROPERTY: clearance (mL/min/kg)
Report as a plain number; the unit mL/min/kg is understood.

Qu. Answer with reported clearance of Cc1ncc2n1-c1ccc(Cl)cc1C(c1ccccc1F)=NC2
Ans. 6.8

----------
- Tested on: CYP3A
- EXPERIMENTAL_PROTOCOL: clinical
- PARTICULARS: human, plasma, intravenous, 0.2 mg, Cl, MZ twins; total plasma clearance; value (range)
PROPERTY: clearance (mL/min)
# value in mL/min; strip the unit string

Qu. Answer with the recorded clearance for the compound listed here: Cc1ncc2n1-c1ccc(Cl)cc1C(c1ccccc1F)=NC2 [Midazolam, midazolam]
Ans. 450
